Source listed as patent US9725449B2.

Each entry below carries its reported IC50.
- SYSTEM_TESTED: UniProtKB O60885
- PROTOCOL_NOTES: Time resolved fluorescence resonance energy transfer (TR-FRET) binding assay, bromodomain BRD4
- CONDITION_DETAILS: one of the FRET assays described; read-out: FRET BRD4 IC50

Measured IC50 of Cc1nnn(C)c1-c1cnc2c3ccc(Cl)nc3n([C@H](c3ccccc3F)C3CCOCC3)c2c1 : < 0.01 µM

Measured IC50 of Cc1nnn(C)c1-c1cnc2c3ccc(Cl)nc3n([C@@H](c3ccccc3)C3CCOCC3)c2c1 : < 1.5 µM

Measured IC50 of CCCC(c1ccccc1)n1c2cc(-c3c(C)nnn3C)ncc2c2ncc(C(C)(C)O)cc21 (stereo not shown) : < 1.5 µM

Measured IC50 of [2H]C([2H])([2H])c1nnn(C)c1-c1cnc2c3ccc(S(C)(=O)=O)nc3n([C@H](c3ccccc3F)C3CCOCC3)c2c1 : < 0.01 µM

Measured IC50 of [2H]C([2H])([2H])c1nnn(C)c1-c1cnc2c3c(OC)ncc(S(C)(=O)=O)c3n([C@H](c3ccccc3F)C3CCOCC3)c2c1 : < 0.001 µM

Measured IC50 of Cc1nnn(C)c1-c1cnc2c3c(O)nc(C(C)(C)O)cc3n([C@@H](c3ncccc3F)C3CCOCC3)c2c1 : < 0.01 µM

Measured IC50 of Cc1nnn(C)c1-c1cnc2c3cnc(C(C)(C)O)cc3n([C@H](c3ccccc3)C3CCOCC3)c2c1 : < 0.001 µM

###

Each entry below carries its reported IC50.
- SYSTEM_TESTED: UniProt O60885
- PROTOCOL_NOTES: Time resolved fluorescence resonance energy transfer (TR-FRET) binding assay, bromodomain BRD4
- CONDITION_DETAILS: one of the FRET assays described; read-out: FRET BRD4 IC50

Some entries whose results are on file:
1. Cc1nnn(C)c1-c1cnc2c3ccc(N4CCS(=O)(=O)CC4)nc3n([C@H](c3ccccc3)C3CCOCC3)c2c1 ... < 1 nM
2. Cc1nnn(C)c1-c1cnc2c3ccc(NS(C)(=O)=O)nc3n([C@H](c3ccccc3)C3CCOCC3)c2c1 ... < 10 nM

Measured IC50 of COc1nccc2c3ncc(-c4c(C)nnn4C)cc3n(C(c3ccc(F)cc3F)C3CCOCC3)c12 (racemic) : < 10 nM

Measured IC50 of COc1nccc2c3ncc(-c4c(C)nnn4C)cc3n(C(c3cc(F)ccc3F)C3CCOCC3)c12 (racemic) : < 10 nM

Measured IC50 of [2H]C(C)(O)c1ccc2c3ncc(-c4c(C)nnn4C)cc3n([C@H](c3ccccc3)C3CCOCC3)c2n1 (stereo partly shown) : < 10 nM

Measured IC50 of CCCC(c1ncccc1F)n1c2cc(-c3c(C)nnn3C)ncc2c2ncc(C(C)(C)O)cc21 (single isomer, unassigned) [Example 370] : < 10 nM

Measured IC50 of [2H]C([2H])([2H])c1nnn(C)c1-c1cnc2c3c(OCCCF)ncc(S(C)(=O)=O)c3n([C@H](c3ccccc3F)C3CCOCC3)c2c1 : < 1 nM

###

- SYSTEM_TESTED: BRD4 (Homo sapiens)
- PROTOCOL_NOTES: Time resolved fluorescence resonance energy transfer (TR-FRET) binding assay, bromodomain BRD4
- CONDITION_DETAILS: one of the FRET assays described; read-out: FRET BRD4 IC50
Each entry below carries its reported IC50.

Some entries whose results are on file:
1. Cc1nnn(C)c1-c1cnc2c3c(OC(C)C)ncc(S(C)(=O)=O)c3n([C@H](c3ccccc3)C3CCOCC3)c2c1 ... < 1 nM
2. Cc1nnn(C)c1-c1cc2c(cn1)c1ncc(C(C)(C)O)cc1n2[C@H](c1ccccc1)C1CCOCC1 ... < 10 nM
3. CCOc1ncc(S(C)(=O)=O)c2c1c1ncc(-c3c(C)nnn3C)cc1n2[C@H](c1ccccc1)C1CCOCC1 ... < 1 nM
4. Cc1noc(C)c1-c1cnc2c3cnc(C(C)(C)O)cc3n([C@H](c3ncccc3F)C3CCOCC3)c2c1 ... < 10 nM
5. COC(=O)c1cnc(OC)c2c3ncc(-c4c(C)nnn4C)cc3n([C@H](c3ccccc3)C3CCOCC3)c12 ... < 1 nM

Measured IC50 of Cc1nnn(C)c1-c1cnc2c3cnc(C(C)(C)O)cc3n([C@H](c3ccc(F)cc3)C3CCOCC3)c2c1 : < 10 nM

Measured IC50 of CCS(=O)(=O)Nc1ncc(S(C)(=O)=O)c2c1c1ncc(-c3c(C)noc3C)cc1n2[C@H](c1ccccc1)C1CCOCC1 : < 1 nM

Measured IC50 of [2H]C([2H])([2H])c1nnn(C)c1-c1cnc2c3c(N(C)C(C)C)ncc(S(C)(=O)=O)c3n([C@H](c3ccccc3)C3CCOCC3)c2c1 : < 1 nM

Measured IC50 of [2H]C([2H])([2H])c1nnn(C)c1-c1cnc2c3c(OCC4CCCO4)ncc(S(C)(=O)=O)c3n([C@H](c3ccccc3)C3CCOCC3)c2c1 (some centres unmarked) [Example 110] : < 10 nM

Measured IC50 of [2H]C([2H])([2H])c1nnn(C)c1-c1cnc2c3ccc(N4CCN(C(C)(C)C)CC4)nc3n([C@H](c3ccccc3)C3CCOCC3)c2c1 : < 10 nM

Measured IC50 of Cc1noc(C)c1-c1cnc2c3cnc(Cl)cc3n([C@H](c3ccc(F)cc3)C3CCOCC3)c2c1 : < 10 nM

Measured IC50 of Cc1nnn(C)c1-c1cnc2c3cnc(Cl)cc3n(C(c3ncccc3F)C3CCOCC3)c2c1 (single isomer, unassigned) [Example 317] : < 1500 nM

Measured IC50 of [2H]C([2H])([2H])c1nnn(C)c1-c1cnc2c3c(OCC4CC4)ncc(S(C)(=O)=O)c3n([C@H](c3ccccc3)C3CCOCC3)c2c1 : < 1 nM
